- System: Serine protease 1 (Bos taurus, UniProt P00760)
- Sequence (P00760 whole entry): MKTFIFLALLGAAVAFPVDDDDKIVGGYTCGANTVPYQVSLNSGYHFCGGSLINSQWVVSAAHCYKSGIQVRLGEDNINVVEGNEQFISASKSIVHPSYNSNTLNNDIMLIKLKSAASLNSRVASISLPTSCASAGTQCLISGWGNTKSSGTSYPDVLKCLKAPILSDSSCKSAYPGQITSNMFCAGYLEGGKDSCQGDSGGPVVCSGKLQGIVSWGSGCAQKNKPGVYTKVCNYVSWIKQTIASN
Quantity kind: IC50 (µM)
Use µM as the unit, but write only the number.

Query: What does the record list as IC50 for `Cc1ccc(N2C(=O)N(c3ccc(C)cc3)C2=O)cc1` ?
Result: 0.2

Query: What does the record list as IC50 for `CCN1C(=O)N(CC)C1=O` ?
Result: 39

###

- Procedure text: Half life was determined
- Assay type: ADME
- Experimental setup: sodium methoxide 10 mM in methanol, 21 °C
Quantity kind: half-life (h)
Use h as the unit, but write only the number.

Query: What does the record list as half-life for `O=C1N(Cc2ccccc2)C(=O)N1Cc1ccccc1` ?
Result: 9.5

###

- System: Neutrophil elastase (Homo sapiens, UniProt P08246)
- Sequence (P08246 whole entry): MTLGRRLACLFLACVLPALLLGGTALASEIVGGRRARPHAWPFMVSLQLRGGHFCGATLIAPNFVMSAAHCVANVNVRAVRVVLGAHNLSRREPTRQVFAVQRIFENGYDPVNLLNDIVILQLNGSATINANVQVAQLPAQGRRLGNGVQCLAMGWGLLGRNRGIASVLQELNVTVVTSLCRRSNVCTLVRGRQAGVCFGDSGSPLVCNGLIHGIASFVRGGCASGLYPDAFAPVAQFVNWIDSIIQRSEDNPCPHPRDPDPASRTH
- Procedure text: Compound was evaluated for its inhibitory activity against human neutrophil elastase
Field: IC50. Provide a value for each of the compounds that follow.
Use nM as the unit, but write only the number.

Query: What does the record list as IC50 for `O=C1N(Cc2ccccc2)C(=O)N1Cc1ccccc1` ?
Result: 100

Query: What does the record list as IC50 for `CCN1C(=O)N(CC)C1=O` ?
Result: 58

Query: What does the record list as IC50 for `Cc1ccc(N2C(=O)N(c3ccc(C)cc3)C2=O)cc1` ?
Result: 230

###

- System: Prothrombin (Homo sapiens)
- Procedure text: Compound was evaluated for its inhibitory activity against human thrombin
Quantity kind: IC50 (nM)
Use nM as the unit, but write only the number.

Query: What does the record list as IC50 for `O=C1N(Cc2ccccc2)C(=O)N1Cc1ccccc1` ?
Result: 72

Query: What does the record list as IC50 for `CCN1C(=O)N(CC)C1=O` ?
Result: 5600

###

Field: IC50. Provide a value for each of the compounds that follow.
- System: Chymase (Homo sapiens)
- Sequence (P23946 whole entry): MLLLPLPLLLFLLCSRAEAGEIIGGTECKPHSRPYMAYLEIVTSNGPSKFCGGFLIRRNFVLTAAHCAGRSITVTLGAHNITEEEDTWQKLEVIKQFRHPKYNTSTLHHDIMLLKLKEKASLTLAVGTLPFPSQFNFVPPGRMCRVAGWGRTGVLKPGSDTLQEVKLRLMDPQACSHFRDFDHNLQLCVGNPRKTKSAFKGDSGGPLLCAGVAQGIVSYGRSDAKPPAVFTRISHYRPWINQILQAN
- Procedure text: Compound was evaluated for its inhibitory activity against human Serine protease chymase
# output: numeric value plus its unit

Query: So what IC50 did `COc1ccc(CN2C(=O)N(Cc3ccc(OC)cc3)C2=O)cc1` get with Chymase (Homo sapiens)?
Result: 2 nM

Query: So what IC50 did `Cc1ccc(N2C(=O)N(c3ccc(C)cc3)C2=O)cc1` get with Chymase (Homo sapiens)?
Result: 140 nM

Query: So what IC50 did `O=C1N(Cc2ccc3c(c2)OCO3)C(=O)N1Cc1ccc2c(c1)OCO2` get with Chymase (Homo sapiens)?
Result: 0.85 nM

Query: So what IC50 did `O=C1N(Cc2ccccc2)C(=O)N1Cc1ccccc1` get with Chymase (Homo sapiens)?
Result: 4 nM

Query: So what IC50 did `COc1cccc(CN2C(=O)N(Cc3cccc(OC)c3)C2=O)c1` get with Chymase (Homo sapiens)?
Result: 2.3 nM

Query: So what IC50 did `O=C1N(c2ccc3c(c2)OCO3)C(=O)N1c1ccc2c(c1)OCO2` get with Chymase (Homo sapiens)?
Result: 48 nM

###

- System: UniProtKB P00747
- Sequence (P00747 97-580 limits assumed): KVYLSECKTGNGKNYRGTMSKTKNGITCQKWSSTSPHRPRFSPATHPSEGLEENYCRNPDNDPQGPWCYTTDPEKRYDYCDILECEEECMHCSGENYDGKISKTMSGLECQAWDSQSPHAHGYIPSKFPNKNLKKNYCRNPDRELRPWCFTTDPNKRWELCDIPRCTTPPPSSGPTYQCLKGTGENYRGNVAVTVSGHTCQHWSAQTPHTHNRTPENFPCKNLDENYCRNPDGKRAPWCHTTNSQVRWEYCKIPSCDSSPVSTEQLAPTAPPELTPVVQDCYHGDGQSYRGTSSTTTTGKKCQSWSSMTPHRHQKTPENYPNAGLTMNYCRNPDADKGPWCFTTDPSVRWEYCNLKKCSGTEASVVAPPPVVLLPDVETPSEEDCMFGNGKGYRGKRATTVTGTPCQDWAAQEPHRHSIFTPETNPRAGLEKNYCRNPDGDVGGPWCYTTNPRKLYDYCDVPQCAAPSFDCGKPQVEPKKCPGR
- Sequence (P00747 581-810 limits assumed): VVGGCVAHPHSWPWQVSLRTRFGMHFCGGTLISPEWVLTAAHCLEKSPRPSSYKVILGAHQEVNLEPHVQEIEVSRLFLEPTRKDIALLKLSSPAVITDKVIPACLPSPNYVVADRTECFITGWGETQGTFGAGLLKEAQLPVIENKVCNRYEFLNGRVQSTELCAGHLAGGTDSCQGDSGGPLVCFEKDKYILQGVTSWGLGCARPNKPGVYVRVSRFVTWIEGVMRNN
pIC50: −log10 of the molar value.
Quantity kind: pIC50

Query: So what pIC50 did `CCN1C(=O)N(CC)C1=O` get with UniProtKB P00747?
Result: < 5.00

All values here come from ChEMBL document CHEMBL1134118.
